test_details: yeast display, Sf9 membrane polyspecificity reagent, FACS + sequencing; frameworks hold sequencing errors
measurement_type: polyreactivity (PSR sort gate)

Field: example entries. Status: answers known.
seq_text	measurement_type	measured_result
QVQLQESGGGLVQAGGSLRLSCAASGNISSYYRMGWYRHAPGKEREFVATIAVGGTTNYADSVKGRFTISRDNAKNTVYLQMNSLKPEDTAVCFCAANCNQYTWFDYWGQGTQVPVSS	polyreactivity (PSR sort gate)	low polyreactivity
QVQLVESGGGLVQAGGSLRLSCAASGSSFTRYAMGWYRQAPGKERELVATINFSGDRTYYADSVKGRFTISRDNAKNTVYLQMNSLKPEDTAVYYCNNYSYQWPYRRFDYWGQGTLVTVSS	polyreactivity (PSR sort gate)	high polyreactivity
QVQLVESWGGLVQAGCSLRLSCAPSGSIFRTNAMGWYREAPGKQRELLAAITGSGGSTNYADSVKGRFTISRDNAKNTVYLQMNSLKPEDTADYYCAAEFGSLLSPYNYYYWGQGTQVTVSS	polyreactivity (PSR sort gate)	low polyreactivity
QVQLVESGGGLVQAGGSLRLTSAASGSTIDYYAMGWYRQAPGKERELVARISKRGGSTYYADSVKGRFTISRDNAKYTVYLQMNSLKPEDTAVYFCAKRVRISYTNYHFDYWGQCTQVTVSS	polyreactivity (PSR sort gate)	high polyreactivity
QVQLQESGGGLVQAGGSPRLSCAESDNIYPDSVICWYRQAPGKERELVATIGFGATTNYADSVKGRLTISRDNAKNTVYLQMNSLKPEDTAVYYCAADPLNYEYFCYWGQGTQVTVSS	polyreactivity (PSR sort gate)	low polyreactivity
QVQLVESGGGLVQAGGSLRLSCAASGRILDYNAMGWYRQAPGKERELVAAITWRGGSTYYADSVKGRFTISRDNAKNTVYLQMNSLKPEDTAVYYCNARWSKTAHTRFGYWGQGTQVTVSS	polyreactivity (PSR sort gate)	low polyreactivity
QVQLVESGGGLVQAGGSLRLSCAASGSTFIVYAMGWYRQAPGKERELVAAITASGGSTYADSVKGRFTISRDNAKNTVYLQMNSLKPEDTAVYYCAARRWSRKYRKYDYWGQGTQVTVSS	polyreactivity (PSR sort gate)	high polyreactivity
QVQLVESGGGLVQAGGSLRLSCAASGFIFVRYARGWNRQAPGKERELVASITRSGGSTYYADSVKGRFTISRDNAKNTVYLQMNSLKPEDTAVYYCAASYYRSRGSTYGYWGQGTQVTVSS	polyreactivity (PSR sort gate)	high polyreactivity
QVQLVESGGGLVQAGGSLRLSCAASGSTFVYYAMGWYRQAPGKEREFVAAISISTGSTYYADSVKGRFTISRDNAKNTVYLQMNSLKPEDTAVYYCAVDWFLGGYDDLDYWGQGTQVTVSS	polyreactivity (PSR sort gate)	low polyreactivity
QVQLVESRGGLVQAGGSLRLSCAASGRIFGYYAMGWYRQAPGKERELVATIRGGGSTNYADSVKGRFTISRDNAKNTVYLQMNSLKPEDTAVYYCAKPGAKWRGFDYWGQGTQVTVSS	polyreactivity (PSR sort gate)	low polyreactivity

Ask: Provide only the value of recorded polyreactivity (PSR sort gate) for QVQLVESGGGLVQAGGSLRLSCAASGLILSDYAMGWYRQAPGKERELVATITSVGTTKYADSVKGRFTISRDNAKNTVYLQMNSLKPEDTAVYYCAVEWYQGTTYSISYLYDYWGQGTQVTVSS
Reply: low polyreactivity

Ask: Let me know recorded polyreactivity (PSR sort gate) for QVQLVESGGGLVQAGGSLRLSCAASGSTFRWNTMGWDRQAPGKEREMVAAISYSGGITYYADSVKGRFTISRDNAKNTVYLQMNSLKPEDTAVYYCNLVAYRSYLSSYDYWGQGTQVTVSS , thanks.
Reply: high polyreactivity

Ask: Give reported polyreactivity (PSR sort gate) value for QVQLVESGGGLVQAGGSLRLSCAASGSTSSPNAMGWNTQAPGKEREFVAAISRSGGSTYYADSVKGRFTISRDNAKNTVYLQMNSLKPEDSAVYYCAATVTVFYTRYYYWGQGTHVTVSS
Reply: high polyreactivity

Ask: Give the reported polyreactivity (PSR sort gate) for this sequence. QVQLVESGGGLVQAGGSLRLSCAASGSTFSYNAMGWYRQAPGKERELVAAISNGGSTNYADSVKGRFTISRDNAKNTVSLQMNSLKPEDTAVYYCAAHTYSELSWLVVYPYDYWGQGTQVTVSS
Reply: low polyreactivity

Ask: Report polyreactivity (PSR sort gate) for QVQLVESGGGLVQAGGSLRLSCAASGRIFFGNAMGWYRLAPGKEREFVAAITWRGGNTYYADSVKGRFTISRDNAKNTVYLQMNSLKPEDTAVYDCNASPSEVRRRYDYWGQGTQVTVSS
Reply: high polyreactivity

Ask: Retrieve polyreactivity (PSR sort gate) measured for QVQLVESGGVLVQAGGSLRLSCAASGRLFSRYTMGWYRQAPGKERELVAAIRNTGSTNYADSVKGRFTISRDNAKNTVYLQMNSLKPEDTAVYYCNARTAYVAYHYYYPQRMDYWGQGTQVTVSS and print it.
Reply: high polyreactivity

Ask: Supply measured polyreactivity (PSR sort gate) of QVQLVESGGGLVQAGGSLRLICAASGITFFRNAMGWYRQAPGKERELVATITKSGGSTYYADSVKGRFTISRDNAKNTVYLQMNSLKPDDTSVYYCSAVRRYPVKYVAYDYWGQGTQVTVSS in your reply.
Reply: low polyreactivity

Ask: Specify measured polyreactivity (PSR sort gate) for QVQLQESGGGLVQGGGSLRLSCAASGSIYRYWYMGWYRQAPGKERELVASITEGATTNYAYSVKAALPLAAITRNTVYLQMDSMKPEDTAVYYRAASFGSTYDLVYWGQGTQVTVSS .
Reply: high polyreactivity

Ask: For QVQRVESGGGLVQAGGSLRLSCAASGSTLYGYALGWYRQAPGKERELVAAISVSGGRTYYADSVKGRFTISRDNAKNTVYLQMNSLKPEDTAVYYCAADGLSPYSGDYWGQGTQVTVSS , write its polyreactivity (PSR sort gate).
Reply: high polyreactivity

Ask: Identify the reported polyreactivity (PSR sort gate) for the following entry. QVQLEESGVGLVQAGGSLRLRCAASGSTVTDNTKGWYRQAPGKERELVAPISGVGSTYYSESVKGRFTISRDNAKNTVYFQMHSLKPEDTAVYYCNVYWGPFYRSGDKYGYWGQGTQVTVSS
Reply: low polyreactivity

Ask: Give polyreactivity (PSR sort gate) for the following sequence: QVQLVESGGGLVQAGGSLRLSCAASGRTFSRNAMGWYRQAPGKERELVATITSDGSTNYADSVKGRFTISRDNAKNTVYLQMNSLKPEDTSVYYCAADEASSRGYYDYDYWGQGTQVTVSS
Reply: low polyreactivity

====

test_details: yeast display, Sf9 membrane polyspecificity reagent, FACS + sequencing; frameworks hold sequencing errors
measurement_type: polyreactivity (PSR sort gate)

seq_text	polyreactivity (PSR sort gate)
QVQLVESGGGLVQAGGSLRLSCAASGGIFSAYVMGWSRQAPGKERELVAAITRRGGSTYYADSVKGRFTISRDNAKNTVYLQMNSLKPEDTAVYYCAALLRGQDRTMDYWGQGTQVTVSS	high polyreactivity
QVQLVESGGALVQAGASLRLSCAASGRTFPLYAMGWYRQAPGKEMELVAAISARGSSTYYADSVKGRFTISRDNAKNTVYLQMNSLKAEDNAVYYCAAKRSYPYGSGYWGQGSQVTVSS	high polyreactivity
QVQLVESGGGLVQAGGSLRLSCAASGRTFRDYVMGWYRQAPGKERELVAVISYRGSTYYADSVKGRFTISRDNAKNTVYLLMNSLKPEDTAVYYCAARFSLEGGYYWGQGTQVTVSS	low polyreactivity
QVQLVESGGGLVQAGGSLRLSCAASGRIFANNAMGWYRQAPGKEREFVAAINYSGTSTYYADSVKGRFTISRDNAKNTVYLQMNSLKPEDTAVYYCAADLPYYPYLYDYWGQGTQVTVSS	low polyreactivity

Field: next sequence
Ask: Return polyreactivity (PSR sort gate) (reported value) for this sequence: QVQLVESGGGLVQAGGSLRLSCAASGSTFYIYAMGWYRQATGKERELVARITRGGTTYADSEKGRFTISRDNAKNTVYLQMNSLKPEDTAVYYCNAASKTTRYYQAFYSGGGYWGQGTQVTVSS
Reply: high polyreactivity

====

test_details: yeast display, Sf9 membrane polyspecificity reagent, FACS + sequencing; frameworks hold sequencing errors
measurement_type: polyreactivity (PSR sort gate)

Known results for sequences:
seq_text	measurement_type	measured_result
QVQLVESGGGLVQAGGSLRLSCAASGFIFRYYAMGWYRQAPGKERELVAAISSSGGSTRYADSVKGRFTISRDNAKNTVYLQMNSLKPEDTAVYYCAARRWRGRYWGDYWGQGTQVTVSS	polyreactivity (PSR sort gate)	high polyreactivity
QVQLVDSGGGLVQAGGSLRLSCAASGRTFSVNAMGWYRQAPGKERELVAAISSAGSTNYADSVKGRFTISRDNAKNTVYLQMNSLKPEDTAVYYCAAGFSPGNYDAPTLAFDYWGQGTQVTLSS	polyreactivity (PSR sort gate)	low polyreactivity
QVQLVESGGGLVQSGGSLRLSCAASGFTFPNNAMGWYRLAPGKERELVAAITWSGGSTYADSVKGRFTISRDNAKNTVYLQMNSLKPEETAVYFCNTRGTYLSKTLPSAYDYWGQGTQVTVSS	polyreactivity (PSR sort gate)	low polyreactivity
QVQLVESGGGLVQAGGSLRLSCAASGSIFSINAMGWYRQAPGKERELVAAISASGGSTYYADSVKGRFTISRDNAKNTVYLQMNSLKPEDTAVYYCAAEGSPTGYDYWGQGTQVTVSS	polyreactivity (PSR sort gate)	low polyreactivity

Switching to the query record.
Ask: Report polyreactivity (PSR sort gate), nothing else, for this sequence: QVQLVESGGGLVQAGGSLRLSCAASGSTLYFYAMGWYRQAPGKERELVADITRSGGSTYYADSVKGRFTISRDNAKNTVYLQMNSLKPEDTAVYYCNADDWSTYWYGYPGYDYWGQGTQVTVSS
Reply: high polyreactivity
